- Method: log P (Table 1)
- Type: physicochemical
Readout name: logP

[
  {
    "Compound": "Cc1nc2ccc(N(Cc3ccccc3Cl)C(=O)c3ccccc3)cc2c(=O)n1Cc1ccc(-c2ccccc2-c2nn[nH]n2)cc1 [Example 106]",
    "logP": 3.8
  },
  {
    "Compound": "CCCc1nc2ccc(N(CCC)C(=O)c3ccccc3OC)cc2c(=O)n1Cc1ccc(-c2ccccc2-c2nnn[nH]2)cc1 [Example 127]",
    "logP": 4.1
  },
  {
    "Compound": "CCCCCN(C(=O)c1ccc(O)cc1)c1ccc2nc(CCC)n(Cc3ccc(-c4ccccc4-c4nnn[nH]4)cc3)c(=O)c2c1 [Example 130]",
    "logP": 4.7
  },
  {
    "Compound": "CCCCC(=O)N(Cc1ccccc1)c1ccc2nc(CCC)n(Cc3ccc(-c4ccccc4-c4nn[nH]n4)cc3)c(=O)c2c1 [Example 42]",
    "logP": 5.4
  }
]
